Provenance of the data: patent US20240352105A1

Molecular target: T1, Fel D1 (Felis catus, UniProt P30438)
T1 construct: made in house; host or cells: chemically synthesized peptides
Experiment: ELISA binding assay of anti-Fel d1 VHH clones on Fel D1 epitopes
Parameters: species or system cat
Settings: Epitope Recognized AKMTEEDKENALS (SEQ ID NO: 60)
reportedMetric: EC50 (µg/mL)
Give your result in µg/mL as a bare value.

Sample answers from the record:
| molecule | measurementUnit | EC50 |
| --- | --- | --- |
| SDAB22110-4-3-B02: anti-Fel d1 VHH clone, SEQ ID NO: 54 (protein) VHH: QVQLVESGGGLVQPGGSLRLSCVASGFTFSFYTMEWYRQAAGKQRELVAGLTASGTTHYADSAKGRFTISRDNAWNTVFLQMNGLKPEDTAVYYCNAYSGYRDYWGQGTQVTVSL | µg/mL | 12.200 |
| SDAB22110-4-3-G08: anti-Fel d1 VHH clone, SEQ ID NO: 56 (protein) VHH: DVQLVESGGGLVQPGGSLRLSCAASGFTFSLYYMSWYRQVPGKERELVATITSGTHATTYADSVKGRFTISRDNAKNTVSLQMNSLKREDTGVYYCKRTNAGQDPWGQGTQVTVSS | µg/mL | 2.215 |

Consider now this further molecule.
*Q* What does the record list as EC50 for SDAB22110-4-3-H02: anti-Fel d1 VHH clone, SEQ ID NO: 57 (protein) VHH: QLQLVESGGGLVQPGGSLRLSCEASGFTFKYYTMSWYRQAPGKERELVATITNGDRTNYADSVKGRFTISRDNAKNTLYLQMNSLKPYDTAVYYCNRHLPLLQIWGQGTQVTVSS ?
*A* 12.940
